Several publications report pKi on Protein kinase C alpha type (Homo sapiens, UniProt P17252); those values are gathered here.
pKi: −log10 of the molar value.

Examples from the recorded data:
molecule	pKi
NC1CCN(c2ccc(F)c(-c3n[nH]c4ncccc34)n2)CC1	< 5.90
CC(C)(O)C1CN(c2cccc(-c3n[nH]c4ncccc34)n2)CCN1 (centres unmarked)	< 5.90
CC(C)C[C@H]1CN(c2cccc(-c3n[nH]c4ncc(Cl)cc34)n2)CCN1	> 6.30
FC(F)(F)CC1CN(c2cccc(-c3n[nH]c4ncccc34)n2)CCN1 (centres unmarked)	> 5.55
Cc1cc(Nc2ccc(C(F)(F)F)c(C(=O)c3cccnc3N)n2)[nH]n1	5.55 to 6.30
CC(C)C(C)(O)C1CN(c2cc(C(F)(F)F)cc(-c3n[nH]c4ncccc34)n2)CCN1 (centres unmarked)	< 5.90

Short answer on Protein kinase C alpha type (Homo sapiens, UniProt P17252) for Fc1cccc(C2CN(c3ccc(C(F)(F)F)c(-c4n[nH]c5ncccc45)n3)CCN2)c1 (centres unmarked) , pKi: > 5.55

Short answer on Protein kinase C alpha type (Homo sapiens, UniProt P17252) for O=c1[nH]c2cnc(NCC3CCNCC3)nc2n1Cc1ccccc1Br , pKi: < 6.00
